- System: P12-Ichikawa
- Assay method text: cell viability relative to DMSO control; higher = less cytotoxic
- Applied conditions: RPMI 5 mM glucose + 10% FBS; 48 h; 46.1 µM
Would you mind telling me the reported cell viability of each entry?
// return the numeric value with its unit appended

Some compounds with recorded cell viability:
O=P1(N(CCCl)CCCl)NCCCO1 (stereo not drawn): 8.07%
O=[S+]([O-])(CCSSCC[S+](=O)([O-])[O][Na])[O][Na]: 118%

Okay, next one:
Req: Requested read-out: cell viability. Entry: CCCNCC(O)COc1ccccc1C(=O)CCc1ccccc1 (stereo not drawn)
Resp: 110%

* * *

- Tested on: NOMO1
- Assay method text: cell viability relative to DMSO control; higher = less cytotoxic
- Applied conditions: RPMI 5 mM glucose + 10% FBS; 48 h; 46.1 µM
# criterion met = cell viability below 90% (exclusive); criterion not met = cell viability at/above 90%

O=C(O)CCNc1cc(N2CCc3ccccc3CC2)nc(-c2ccccn2)n1: criterion not met
CC1=CC=C2\N=C/3N(CC[C@@]3(O)C(=O)C2=C1)C4=CC=CC=C4: criterion met
OCCNC1CCCc2c1[nH]c1ccc(-c3ccccc3)cc21 (stereo not given): criterion met

Req: Please determine if COc1ccc2c(OCc3nnc4ccc(-c5ccccc5)nn34)ccnc2c1 is below 90% in terms of cell viability.
Resp: criterion not met

Req: Determine if FC(F)(F)C1=CC=C2C(SCCCCCO\C3=C\O\C(CN4CCOCC4)=C/C3=O)=CC=NC2=C1 shows cell viability strictly lower than 90%.
Resp: criterion not met
